Taken from ChEMBL document CHEMBL1909046.

Molecular target: Estrogen receptor (Homo sapiens, UniProt P03372); also: in other assays of this panel Not Active means under 50% inhibition at 10 µM
Sequence (P03372 whole entry): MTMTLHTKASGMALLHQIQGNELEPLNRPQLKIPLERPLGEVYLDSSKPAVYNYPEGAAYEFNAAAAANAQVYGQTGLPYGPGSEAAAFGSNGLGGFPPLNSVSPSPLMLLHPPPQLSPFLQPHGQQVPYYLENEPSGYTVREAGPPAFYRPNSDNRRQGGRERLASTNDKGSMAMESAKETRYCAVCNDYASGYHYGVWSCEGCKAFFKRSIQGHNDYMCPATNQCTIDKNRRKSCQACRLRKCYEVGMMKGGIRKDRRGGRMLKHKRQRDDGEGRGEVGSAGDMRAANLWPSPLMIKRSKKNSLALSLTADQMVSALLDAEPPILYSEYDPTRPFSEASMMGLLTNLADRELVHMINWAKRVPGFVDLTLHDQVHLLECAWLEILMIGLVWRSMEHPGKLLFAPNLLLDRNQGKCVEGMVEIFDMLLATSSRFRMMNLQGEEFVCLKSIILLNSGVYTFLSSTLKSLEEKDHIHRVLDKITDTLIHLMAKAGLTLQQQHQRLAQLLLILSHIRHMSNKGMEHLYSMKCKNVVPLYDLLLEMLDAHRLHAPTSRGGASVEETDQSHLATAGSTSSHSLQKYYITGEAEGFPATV
Details: sf9
Readout: IC50

# annotated cases, reported IC50 shown
structure_smiles_string=CC1=C2C(=CO[C@H](C)[C@H]2C)C(O)=C(C(=O)O)C1=O result="Not Active"
structure_smiles_string=COc1c(C)c2c(c(O)c1C/C=C(\C)CCC(=O)O)C(=O)OC2 result="Not Active"
structure_smiles_string=CC(=O)[C@@]1(O)CC[C@H]2[C@@H]3C[C@H](C)C4=CC(=O)CC[C@]4(C)[C@H]3CC[C@@]21C result="Not Active"
structure_smiles_string=C[C@]12CCC(=O)C=C1CC[C@@H]1[C@@H]2CC[C@@]2(C)[C@H]1CC[C@]2(C)O result="Not Active"
structure_smiles_string=Cc1ccc(N(CC2=NCCN2)c2cccc(O)c2)cc1 result="Not Active"

input: # query: IC50 of entry "CC(C)(C)NC(=O)[C@@H]1C[C@@H]2CCCC[C@@H]2CN1C[C@@H](O)[C@H](Cc1ccccc1)NC(=O)[C@H](CC(N)=O)NC(=O)c1ccc2ccccc2n1"
output: Not Active

input: Param item: "Nc1nc2c(ncn2CCC(CO)CO)c(=O)[nH]1"
output: Not Active

input: Param item: "Cn1ccnc1S"
output: Not Active

* * *

Target: UniProt P0DMS8
Sequence (P0DMS8 whole entry): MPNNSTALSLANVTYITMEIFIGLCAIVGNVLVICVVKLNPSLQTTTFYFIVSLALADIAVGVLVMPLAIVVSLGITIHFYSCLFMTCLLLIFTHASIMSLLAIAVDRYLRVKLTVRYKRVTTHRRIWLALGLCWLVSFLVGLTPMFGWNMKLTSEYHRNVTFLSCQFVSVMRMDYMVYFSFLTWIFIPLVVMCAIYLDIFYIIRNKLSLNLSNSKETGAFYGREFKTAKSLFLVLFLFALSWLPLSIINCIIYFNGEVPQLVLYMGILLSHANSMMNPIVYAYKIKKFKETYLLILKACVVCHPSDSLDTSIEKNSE
Assay type: cell membranes, CHO-K1, Membrane
Conditions: cho-k1
Readout: IC50

compound="CCC(C)n1ncn(-c2ccc(N3CCN(c4ccc(OCC5COC(Cn6cncn6)(c6ccc(Cl)cc6Cl)O5)cc4)CC3)cc2)c1=O (stereo not given)" target_or_test_system="UniProt P0DMS8" result="Not Active"
compound=CC[C@]1(O)C[C@H]2CN(CCc3c([nH]c4ccccc34)[C@@](C(=O)OC)(c3cc4c(cc3OC)N(C=O)[C@H]3[C@@](O)(C(=O)OC)[C@H](OC(C)=O)[C@]5(CC)C=CCN6CC[C@]43[C@@H]65)C2)C1 target_or_test_system="UniProt P0DMS8" result="Not Active"
compound=C[C@H]1O[C@@H](O[C@H]2[C@@H](O)C[C@H](O[C@H]3[C@@H](O)C[C@H](O[C@H]4CC[C@@]5(C)[C@H](CC[C@@H]6[C@@H]5C[C@@H](O)[C@]5(C)[C@@H](C7=CC(=O)OC7)CC[C@]65O)C4)O[C@@H]3C)O[C@@H]2C)C[C@H](O)[C@@H]1O target_or_test_system="UniProt P0DMS8" result="Not Active"
compound=C[C@](N)(Cc1ccc(O)c(O)c1)C(=O)O target_or_test_system="UniProt P0DMS8" result="Not Active"

Okay, next one:
input: # query: IC50 of entry CC1CC(OC(=O)C(O)c2ccccc2)CC(C)(C)C1 (stereo not given) [CYCLANDELATE]
output: Not Active

* * *

Target: B2 bradykinin receptor (Homo sapiens); also: in other assays of this panel Not Active means under 50% inhibition at 10 µM
Sequence (P30411 whole entry): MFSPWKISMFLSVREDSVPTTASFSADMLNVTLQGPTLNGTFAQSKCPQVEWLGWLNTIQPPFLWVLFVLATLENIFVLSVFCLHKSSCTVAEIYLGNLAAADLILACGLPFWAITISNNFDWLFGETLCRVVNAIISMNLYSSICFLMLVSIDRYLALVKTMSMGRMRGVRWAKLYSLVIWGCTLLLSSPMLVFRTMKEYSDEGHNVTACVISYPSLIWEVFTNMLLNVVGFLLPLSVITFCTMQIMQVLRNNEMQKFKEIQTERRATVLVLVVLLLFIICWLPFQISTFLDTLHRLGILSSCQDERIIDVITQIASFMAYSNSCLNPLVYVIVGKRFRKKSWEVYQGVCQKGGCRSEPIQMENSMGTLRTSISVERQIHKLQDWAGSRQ
Type: cell membranes, Membrane
Details: chem-1
Readout: IC50

# annotated cases, reported IC50 shown
molecule="CC(C)N1CCN(c2ccc(OCC3COC(Cn4cncn4)(c4ccc(Cl)cc4Cl)O3)cc2)CC1 (stereo not given)" result="Not Active"
molecule=NC[C@H]1CC[C@H](C(=O)O)CC1 result="Not Active"
molecule="CCC1(c2ccc(N)cc2)CCC(=O)NC1=O (stereo not given) [AMINOGLUTETHIMIDE]" result="Not Active"
molecule=O=c1[nH]c(=O)n([C@H]2C[C@H](O)[C@@H](CO)O2)cc1I result="Not Active"
molecule=CCCOc1ccccc1-c1nc2nn[nH]c2c(=O)[nH]1 result="Not Active"
molecule=CN(C)CCCN1c2ccccc2Sc2ccc(Cl)cc21 result="Not Active"

input: Form field - read-out: IC50; system: B2 bradykinin receptor (Homo sapiens); submitted item: "CC1(C)S[C@@H]2[C@H](NC(=O)Cc3ccccc3)C(=O)N2[C@H]1C(=O)O"
output: Not Active

input: Param item: "O=NN(CCCl)C(=O)NC1CCCCC1"
output: Not Active

input: Param item: COCCc1ccc(OCC(O)CNC(C)C)cc1 (stereo not given)
output: Not Active

input: Param item: C1CCC(C(CC2CCCCN2)C2CCCCC2)CC1 (stereo not given)
output: Not Active

* * *

biological target: Aldo-keto reductase family 1 member B1 (Rattus norvegicus, UniProt P07943); assay: biochemical; format: tissue-based, Lens of camera-type eye; also: in other assays of this panel Not Active means under 50% inhibition at 10 µM;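 also: inhibition of aldose reductase enzyme activity, measured with DL-glyceraldehyde as the substrate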
Readout: IC50

structure_smiles_string=OCCN(CCO)c1nc(N2CCCCC2)c2nc(N(CCO)CCO)nc(N3CCCCC3)c2n1 target_or_test_system="Aldo-keto reductase family 1 member B1 (Rattus norvegicus, UniProt P07943)" result="Not Active"
structure_smiles_string=CC[C@]1(O)C[C@H]2CN(CCc3c([nH]c4ccccc34)[C@@](C(=O)OC)(c3cc4c(cc3OC)N(C=O)[C@H]3[C@@](O)(C(=O)OC)[C@H](OC(C)=O)[C@]5(CC)C=CCN6CC[C@]43[C@@H]65)C2)C1 target_or_test_system="Aldo-keto reductase family 1 member B1 (Rattus norvegicus, UniProt P07943)" result="Not Active"
structure_smiles_string=c1ccc([C@H]2CN3CCSC3=N2)cc1 target_or_test_system="Aldo-keto reductase family 1 member B1 (Rattus norvegicus, UniProt P07943)" result="Not Active"

* * *

experiment: DRUGMATRIX: Atrial Natriuretic Factor (ANF) radioligand binding (ligand: [125I] ANF (rat)); format: cell membranes, Cavia porcellus, Dunkin-Hartley, Adrenal gland, Membrane; conditions: Not Active = under 50% inhibition at 10 µM
Readout: IC50

# annotated cases, reported IC50 shown
molecule="CC[C@]1(O)C[C@H]2CN(CCc3c([nH]c4ccccc34)[C@@](C(=O)OC)(c3cc4c(cc3OC)N(C=O)[C@H]3[C@@](O)(C(=O)OC)[C@H](OC(C)=O)[C@]5(CC)C=CCN6CC[C@]43[C@@H]65)C2)C1 [VINCRISTINE]" readout=IC50 result="Not Active"
molecule="CC(C)C(=O)Nc1ccc([N+](=O)[O-])c(C(F)(F)F)c1 [FLUTAMIDE]" readout=IC50 result="Not Active"
molecule="OC(Cn1cncn1)(Cn1cncn1)c1ccc(F)cc1F [FLUCONAZOLE]" readout=IC50 result="Not Active"
molecule="Cc1noc(NS(=O)(=O)c2ccc(N)cc2)c1C [SULFISOXAZOLE]" readout=IC50 result="Not Active"

input: # query: IC50 of entry CNCCCN1c2ccccc2CCc2ccccc21 [DESIPRAMINE]
output: Not Active

input: Param item: CCCOc1ccccc1-c1nc2nn[nH]c2c(=O)[nH]1 [ZAPRINAST]
output: Not Active
